target: Heat shock factor protein 1 (Mus musculus); assay: HSF1 potentiators in luciferase reporter cells, confirmation, cell-based, NIH3T3, luminescence, dose retest (AID 435004); assay type: functional;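 further: stress induced by proteasome inhibitor MG132 added 30 min after compound; luciferase reporter driven by HSF1 response element in NIH3T3 cells; actives raise luminescence as potentiators of the MG132 stress response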
Sequence (P38532 whole entry): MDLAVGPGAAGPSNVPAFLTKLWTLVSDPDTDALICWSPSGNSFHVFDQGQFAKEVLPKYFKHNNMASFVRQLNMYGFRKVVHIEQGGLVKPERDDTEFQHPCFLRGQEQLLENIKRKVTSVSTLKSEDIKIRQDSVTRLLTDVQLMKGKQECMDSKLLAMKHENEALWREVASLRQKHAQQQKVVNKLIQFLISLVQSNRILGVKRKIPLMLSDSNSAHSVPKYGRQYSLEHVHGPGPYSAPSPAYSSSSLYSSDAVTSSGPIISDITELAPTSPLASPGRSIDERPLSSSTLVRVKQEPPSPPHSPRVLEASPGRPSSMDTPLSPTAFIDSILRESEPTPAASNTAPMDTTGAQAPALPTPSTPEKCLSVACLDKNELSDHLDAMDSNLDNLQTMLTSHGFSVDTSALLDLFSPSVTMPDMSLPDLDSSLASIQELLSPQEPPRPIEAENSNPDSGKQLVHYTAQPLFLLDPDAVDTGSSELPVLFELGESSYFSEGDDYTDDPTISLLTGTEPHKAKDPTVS
Activity calls are given as the source filed them. No stated cut-off is given here; in the data, actives have a measured EC50 and inactives only a lower limit.
MEASURED PARAMETER: EC50

> print(dat)
                                 smi  experimental.result
1  O=C(CCCc1ccccc1)Nc1ccc2c(c1)OCCO2     32.2 µM (active)

Asked: Field request: EC50 | item: COc1ccc(C)cc1-n1c(SCC(=O)Nc2cccc(C(=O)O)c2)nc2ccccc2c1=O
Given back: > 260 µM (inactive)

Asked: Field request: EC50 | item: CCOC(=O)COc1ccc(/C=C/[N+](=O)[O-])c(OCC(=O)OCC)c1
Given back: 6.52 µM (inconclusive)

Asked: Field request: EC50 | item: CCCNC(=O)Nc1ccc(C)cc1C
Given back: > 260 µM (inactive)

Asked: Field request: EC50 | item: N#Cc1c(NC(=O)CSc2nnc(-c3ccccc3)o2)sc2c1CCCC2
Given back: > 260 µM (inactive)
